# SYSTEM_UNDER_TEST: T1, human CD3 on CD3+ Jurkat cells (human, UniProt P07766 23-207)
# T1 construct: whole, on cells; Native CD3 complex on cells; the other CD3 chains are not specified for this assay; also called Human CD3+ Jurkat
# ASSAY_DETAILS: flow cytometry on CD3+ Jurkat cells, ratio of MFI at pH 6.0 to pH 7.4
Please note: t applies when MFI pH 6.0/MFI pH 7.4 is 9 or greater, and f applies otherwise.

| BINDER | LABEL_VALUE |
| --- | --- |
| SAD10318_P01_H03 (ADI-48591) (antibody, V domains shown, IgG; also called Ab102) VH: QVQLVQSGAEVKKPGASVKVSCKASGFNIKDYYMHWVRQAPGQRLEWMGWIDLENANTIYDAKFQGRVTITRDTSASTAYMELSSLRSEDTAVYYCAHDAYGHYFYDVWGQGTLVTVSS VL: DIVMTQSPDSLAVSLGERATINCKSSQSLLNARTGHNYLAWYQQKPGQPPKLLIYWASTRESGVPDRFSGRGSGTDFTLTISSLQAEDVAVYYCKQSYHHRTFGGGTKVEIK | t |

Problem: Is the recorded value of MFI pH 6.0/MFI pH 7.4 equal to or greater than 9 for this binder? SAD10318_P03_E09 (ADI-48611) (antibody, V domains shown, IgG; also called Ab207) VH: QVQLVQSGAEVKKPGASVKVSCKASGFNIKDYYMHWVRQAPGQRLEWMGWIDLENANTIYDAKFQGRVTITRDTSASTAYMELSSLRSEDTAVYYCARDAYGHYHYDVWGQGTLVTVS VL: DIVMTQSPDSLAVSLGERATINCKSSQSLLNARTGHNHLAWYQQKPGQPPKLLIYWASTRESGVPDRFSGSGSGTDFTLTISSLQAEDVAVYYCKQSYHHRTFGGGTKVEIK
Result: f

Problem: Is the recorded value of MFI pH 6.0/MFI pH 7.4 equal to or greater than 9 for this binder? SAD10318_P01_H01 (ADI-48580) (antibody, V domains shown, IgG; also called Ab226) VH: QVQLVQSGAEVKKPGASVKVSCKASGFNIKDYYMHWVRQAPGQRLEWMGWIDLENANTIYDAKFQGRVTITRDTSASTAYMELSSLRSEDTAVYYCARDAHHRYFYDVWGQGTLVTVSS VL: DIVMTQSPDSLAVSLGERATINCKSSQSLLNAHTGKNHLAWYQQKPGQPPKLLIYWASTRESGVPDRFSGSGSGTDFTLTISSLQAEDVAVYYCKQSYHHRTFGGGTKVEIK
Result: t

Problem: Is the recorded value of MFI pH 6.0/MFI pH 7.4 equal to or greater than 9 for this binder? SAD10319_P01_C03 (ADI-48626) (antibody, V domains shown, IgG; also called Ab244) VH: QVQLVQSGAEVKKPGASVKVSCKASGYTFTDYDMHWVRQAPGQRLEWMGWIDPYTGATKYSQKFQGRVTITRDTSASTAYMELSSLRSEDTAVYYCARDAYGHYFYDVWGQGTLVTVSS VL: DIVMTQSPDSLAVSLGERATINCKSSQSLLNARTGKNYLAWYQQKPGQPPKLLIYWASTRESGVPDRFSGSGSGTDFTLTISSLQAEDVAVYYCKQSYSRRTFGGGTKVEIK
Result: f

Problem: Is the recorded value of MFI pH 6.0/MFI pH 7.4 equal to or greater than 9 for this binder? SAD10319_P02_E05 (ADI-48630) (antibody, V domains shown, IgG; also called Ab4) VH: QVQLVQSGAEVKKPGASVKVSCKASGYTFDSYIMHWVRQAPGQRLEWMGWIDAGTGATVYSQKFQGRVTITRDTSASTAYMELSSLRSEDTAVYYCARDAYGHYFYDHWGQGTLVTVSS VL: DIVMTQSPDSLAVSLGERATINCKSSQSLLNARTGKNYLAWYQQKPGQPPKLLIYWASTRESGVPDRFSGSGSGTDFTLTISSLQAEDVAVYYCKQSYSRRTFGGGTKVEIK
Result: f

Origin of values: patent US20220380463A1
